Organism: Rattus norvegicus
Assay: DrugMatrix - Regimen: Daily Repeat
Type: toxicity, organism-based, Sprague-Dawley
Set-up: regimen Daily Repeat, gender Male, age 6-8 weeks
Settings: in vivo, po, 0 mg/kg, 120 h, tissue Blood, route oral GAVAGE, dose level Control, time 5 day, vehicle .5 % CMC
Measured parameter: MEAN CORPUSCULAR VOLUME (fL)

# Compound, Measured parameter, Unit string, Value reported
rows = [
    ("CC[C@@H](CO)NCCN[C@@H](CC)CO", "MEAN CORPUSCULAR VOLUME", "fL", 60.47),
    ("CNC(=C[N+](=O)[O-])NCCSCc1ccc(CN(C)C)o1", "MEAN CORPUSCULAR VOLUME", "fL", 61.82),
    ("Clc1ccc2c(c1)C(N1CCNCC1)=Nc1ccccc1O2", "MEAN CORPUSCULAR VOLUME", "fL", 62.7),
    ("CN1CCC(=C2c3ccccc3C=Cc3ccccc32)CC1", "MEAN CORPUSCULAR VOLUME", "fL", 64.47),
    ("CN1C(=O)COc2c(C(=O)NC3CN4CCC3CC4)cc(Cl)cc21 (stereo not given)", "MEAN CORPUSCULAR VOLUME", "fL", 62.4),
]

Sourced from ChEMBL document CHEMBL3885881
